This collection of values is drawn from patent US20100298141A1.

# Tested on: bermudagrass
# protocol: Test F preemergence test
# Type: in vivo, Cynodon dactylon
# run-conditions: 125 g ai/ha, preemergence, scale 0 to 100
property: Bermudagrass plant response rating

molecule="CC(Oc1c(CS(=O)(=O)c2cccc[n+]2[O-])c(C(F)(F)F)nn1C)C(F)(F)F (stereo not drawn)" numeric_readout=100
molecule="Cn1nc(C(F)(F)F)c(C[S+]([O-])c2ccc(F)c[n+]2[O-])c1OC(F)F (stereo not drawn)" numeric_readout=100
molecule="Cn1nc(C(F)(F)F)c(C[S+]([O-])c2ccc(Cl)c[n+]2[O-])c1OCC(F)F (stereo not drawn)" numeric_readout=95
molecule="Cn1nc(C(F)(F)F)c(C[S+]([O-])c2cccc[n+]2[O-])c1OCC(F)(F)F (racemic)" numeric_readout=100
molecule=CCn1nc(C(F)(F)F)c(CS(=O)(=O)c2cc(C)cc[n+]2[O-])c1OCC(F)(F)F numeric_readout=90
molecule="Cc1cc[n+]([O-])c(S(=O)(=O)C(Cl)c2c(C(F)(F)F)nn(C)c2OCC(F)(F)F)c1 (racemic)" numeric_readout=75

---

# Tested on: common (oilseed) sunflower
# protocol: Test C pre-/postemergence test
# Format: in vivo, Helianthus annuus
# run-conditions: 62 g ai/ha, Preemergence; scale 0 to 100
Reported Sunflower plant response rating values are given for each entry in this list.
property: Sunflower plant response rating

compound="Cn1nc(C(F)(F)F)c(C[S+]([O-])c2ccc(Cl)c[n+]2[O-])c1OCC(F)(F)F (racemic) [Compound 62]" result=75
compound="Cn1nc(C(F)(F)F)c(C[S+]([O-])c2cc(Cl)cc[n+]2[O-])c1Cl (racemic) [Compound 39]" result=0
compound="CCc1cc[n+]([O-])c(S(=O)(=O)Cc2c(C(F)(F)F)nn(C)c2OCC(F)(F)F)c1 [Compound 60]" result=55
compound="CC(Oc1c(C[S+]([O-])c2cccc[n+]2[O-])c(C(F)(F)F)nn1C)C(F)(F)F (stereo not shown) [Compound 77]" result=0
compound="CCn1nc(C(F)(F)F)c(C[S+]([O-])c2cc(C)cc[n+]2[O-])c1OCC(F)(F)F (racemic) [Compound 66]" result=80
compound="Cc1cc[n+]([O-])c(S(=O)(=O)Cc2c(C(F)(F)F)nn(C)c2OCC(F)(F)F)c1 [Compound 31]" result=20
compound="CCc1cc[n+]([O-])c([S+]([O-])Cc2c(C(F)(F)F)nn(C)c2OCC(F)(F)F)c1 (stereo not shown) [Compound 59]" result=85

---

# System: southern sandbur
# protocol: Test F preemergence test
# Type: in vivo, Cenchrus echinatus
# run-conditions: Preemergence; 31 g ai/ha; scale 0 to 100
property: Plant response rating, Sandbur

compound="Cc1cc[n+]([O-])c(S(=O)(=O)C(C)c2c(C(F)(F)F)nn(C)c2OC(F)F)c1 (centres unmarked) [Compound 11]" property="Plant response rating, Sandbur" numeric_readout=95
compound="Cc1cc[n+]([O-])c(S(=O)(=O)C(Cl)c2c(C(F)(F)F)nn(C)c2Cl)c1 (racemic) [Compound 22]" property="Plant response rating, Sandbur" numeric_readout=65
compound="Cn1nc(C(F)(F)F)c(C[S+]([O-])c2ccc(Cl)c[n+]2[O-])c1OC(F)F (centres unmarked) [Compound 6]" property="Plant response rating, Sandbur" numeric_readout=100
compound="CC(Oc1c(CS(=O)(=O)c2cccc[n+]2[O-])c(C(F)(F)F)nn1C)C(F)(F)F (centres unmarked) [Compound 82]" property="Plant response rating, Sandbur" numeric_readout=60
compound="CC(Oc1c(C[S+]([O-])c2cccc[n+]2[O-])c(C(F)(F)F)nn1C)C(F)(F)F (centres unmarked) [Compound 77]" property="Plant response rating, Sandbur" numeric_readout=90
compound="CCc1cc[n+]([O-])c(S(=O)(=O)Cc2c(C(F)(F)F)nn(C)c2OCC(F)(F)F)c1 [Compound 60]" property="Plant response rating, Sandbur" numeric_readout=20
compound="CC(Oc1c(C[S+]([O-])c2ccc(Cl)c[n+]2[O-])c(C(F)(F)F)nn1C)C(F)(F)F (centres unmarked) [Compound 87]" property="Plant response rating, Sandbur" numeric_readout=100
compound="Cn1nc(C(F)(F)F)c(C[S+]([O-])c2ccc(F)c[n+]2[O-])c1OC(F)F (centres unmarked) [Compound 58]" property="Plant response rating, Sandbur" numeric_readout=80
